test: DPPH radical scavenging assay; settings: 2 µg mL^−1
measurement_kind: DPPH percent radical scavenging (%)
Numbers only here, please. The scale is %.

## Task Entry under review: Cc1c(C)c2c(c(C)c1O)CCC(C)(C(=O)O)O2 (stereo not drawn) [Trolox, reference compound] . Reported DPPH percent radical scavenging?
## Result 13.863

## Task How about N#Cc1ccc(-c2csc(NN=Cc3ccc(CO)o3)n2)cc1 [2c] ?
## Result 3.512

## Task How about OCc1ccc(C=NNc2nc(-c3ccc(Cl)c(Cl)c3)cs2)o1 [2h] ?
## Result 5.361

## Task How about OCc1ccc(C=NNc2nc(-c3ccc(Br)cc3)cs2)o1 [2f] ?
## Result 7.579

## Task How about OCc1ccc(C=NNc2nc(-c3ccc(Cl)cc3Cl)cs2)o1 [2l] ?
## Result 4.436

## Task How about COc1ccc(-c2csc(NN=Cc3ccc(CO)o3)n2)cc1 [2b] ?
## Result 1.109

====

biological target: BChE (Equus caballus, UniProt P81908); construct: BChE (from horse serum); assay: biochemical; conditions: substrate BChI, 37 °C
Sequence (P81908 whole entry): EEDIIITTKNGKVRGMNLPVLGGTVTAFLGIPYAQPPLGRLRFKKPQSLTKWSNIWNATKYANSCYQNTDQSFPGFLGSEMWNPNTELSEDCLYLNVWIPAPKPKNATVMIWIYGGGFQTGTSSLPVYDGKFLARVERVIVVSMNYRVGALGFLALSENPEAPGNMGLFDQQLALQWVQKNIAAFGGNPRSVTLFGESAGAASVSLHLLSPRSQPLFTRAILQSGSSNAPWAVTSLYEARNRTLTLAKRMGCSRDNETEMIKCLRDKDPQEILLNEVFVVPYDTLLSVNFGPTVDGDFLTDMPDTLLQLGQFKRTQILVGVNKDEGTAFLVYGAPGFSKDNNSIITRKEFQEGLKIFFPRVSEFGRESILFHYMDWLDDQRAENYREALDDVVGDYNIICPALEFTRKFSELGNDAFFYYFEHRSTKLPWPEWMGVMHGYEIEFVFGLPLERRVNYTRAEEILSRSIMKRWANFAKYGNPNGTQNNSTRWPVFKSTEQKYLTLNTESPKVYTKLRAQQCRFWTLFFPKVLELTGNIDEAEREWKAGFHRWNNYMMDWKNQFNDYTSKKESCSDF
Task for the reader: assign each of the following molecules its reported pIC50.
# log scale: pIC50 equals minus log10 of the concentration in mol/L

## Task Entry under review: O=[N+]([O-])c1ccc(-c2csc(NN=Cc3ccc(CO)o3)n2)cc1 [2a] . Reported pIC50?
## Result 5.06

## Task How about OCc1ccc(C=NNc2nc(-c3ccc(Br)cc3)cs2)o1 [2f] ?
## Result 5.16

## Task How about OCc1ccc(C=NNc2nc(-c3ccc(F)cc3)cs2)o1 [2d] ?
## Result 4.97

## Task How about OCc1ccc(C=NNc2nc(-c3ccc(F)cc3F)cs2)o1 [2i] ?
## Result 5.02

## Task How about OCc1ccc(C=NNc2nc(-c3ccccc3)cs2)o1 [2j] ?
## Result 4.70

## Task How about O=[N+]([O-])c1cccc(-c2csc(NN=Cc3ccc(CO)o3)n2)c1 [2m] ?
## Result 4.66

## Task How about OCc1ccc(C=NNc2nc(-c3ccc(Cl)cc3)cs2)o1 [2k] ?
## Result 4.91

## Task How about COc1ccc(-c2csc(NN=Cc3ccc(CO)o3)n2)cc1 [2b] ?
## Result 4.46

## Task How about OCc1ccc(C=NNc2nc(-c3ccc(-c4ccccc4)cc3)cs2)o1 [2e] ?
## Result 5.03

## Task How about OCc1ccc(C=NNc2nc(-c3ccc(Cl)c(Cl)c3)cs2)o1 [2h] ?
## Result 4.92

## Task How about N#Cc1ccc(-c2csc(NN=Cc3ccc(CO)o3)n2)cc1 [2c] ?
## Result 4.86

## Task How about Cc1ccc(-c2csc(NN=Cc3ccc(CO)o3)n2)cc1 [2g] ?
## Result 4.73

## Task How about OCc1ccc(C=NNc2nc(-c3ccc(Cl)cc3Cl)cs2)o1 [2l] ?
## Result 5.08

====

A short record of pIC50 observed with AChE (Electrophorus electricus, UniProt O42275) follows.
Sequence (O42275 24-633): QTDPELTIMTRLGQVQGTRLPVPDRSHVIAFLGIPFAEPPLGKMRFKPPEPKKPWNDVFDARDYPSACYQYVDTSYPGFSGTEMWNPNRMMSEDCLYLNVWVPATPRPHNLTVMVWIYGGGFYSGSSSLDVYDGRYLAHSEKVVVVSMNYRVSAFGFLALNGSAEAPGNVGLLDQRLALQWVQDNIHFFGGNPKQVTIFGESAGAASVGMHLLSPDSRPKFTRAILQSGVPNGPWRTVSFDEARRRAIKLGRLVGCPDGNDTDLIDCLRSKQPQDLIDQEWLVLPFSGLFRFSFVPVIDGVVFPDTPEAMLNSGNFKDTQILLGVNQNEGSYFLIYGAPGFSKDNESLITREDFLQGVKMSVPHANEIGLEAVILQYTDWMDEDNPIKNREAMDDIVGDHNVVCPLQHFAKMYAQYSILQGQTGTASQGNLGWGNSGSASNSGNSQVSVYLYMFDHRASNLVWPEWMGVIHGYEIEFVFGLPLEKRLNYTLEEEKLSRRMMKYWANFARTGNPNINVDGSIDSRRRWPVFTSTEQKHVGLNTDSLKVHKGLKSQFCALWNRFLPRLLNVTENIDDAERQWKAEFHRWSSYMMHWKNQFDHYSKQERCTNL
# log scale: pIC50 equals minus log10 of the concentration in mol/L

## Task Entry under review: "OCc1ccc(C=NNc2nc(-c3ccccc3)cs2)o1" . Reported pIC50?
## Result 4.21

## Task How about "OCc1ccc(C=NNc2nc(-c3ccc(Cl)cc3Cl)cs2)o1" ?
## Result 4.21

## Task How about "OCc1ccc(C=NNc2nc(-c3ccc(F)cc3F)cs2)o1" ?
## Result 4.20

====

Task for the reader: assign each of the following compounds its reported AChE/BChE SI (selectivity index).
target: AChE (Electrophorus electricus); construct: AChE (from electric eels); from tissue; experiment: biochemical; conditions: SI = KI (AChE)/KI (BChE)
Hey, just send me the number, nothing else.

## Task Entry under review: "OCc1ccc(C=NNc2nc(-c3ccc(Cl)cc3Cl)cs2)o1" . Reported AChE/BChE SI (selectivity index)?
## Result 7.345

## Task How about "N#Cc1ccc(-c2csc(NN=Cc3ccc(CO)o3)n2)cc1" ?
## Result 3.334

## Task How about "OCc1ccc(C=NNc2nc(-c3ccc(Cl)c(Cl)c3)cs2)o1" ?
## Result 3.257

## Task How about "COc1ccc(-c2csc(NN=Cc3ccc(CO)o3)n2)cc1" ?
## Result 0.609

## Task How about "O=[N+]([O-])c1cccc(-c2csc(NN=Cc3ccc(CO)o3)n2)c1" ?
## Result 4.001

## Task How about "OCc1ccc(C=NNc2nc(-c3ccc(F)cc3F)cs2)o1" ?
## Result 6.650

## Task How about "OCc1ccc(C=NNc2nc(-c3ccc(-c4ccccc4)cc3)cs2)o1" ?
## Result 5.287

## Task How about "OCc1ccc(C=NNc2nc(-c3ccccc3)cs2)o1" ?
## Result 3.134

## Task How about "OCc1ccc(C=NNc2nc(-c3ccc(Cl)cc3)cs2)o1" ?
## Result 4.629

## Task How about "Cc1ccc(-c2csc(NN=Cc3ccc(CO)o3)n2)cc1" ?
## Result 2.847

## Task How about "OCc1ccc(C=NNc2nc(-c3ccc(F)cc3)cs2)o1" ?
## Result 4.925

## Task How about "O=[N+]([O-])c1ccc(-c2csc(NN=Cc3ccc(CO)o3)n2)cc1" ?
## Result 2.469

## Task How about "OCc1ccc(C=NNc2nc(-c3ccc(Br)cc3)cs2)o1" ?
## Result 5.557

====

A short record of pKi observed with AChE (Electrophorus electricus) follows.
# log scale: pKi equals minus log10 of the concentration in mol/L

## Task Observed pKi on AChE (Electrophorus electricus) for "OCc1ccc(C=NNc2nc(-c3ccc(Cl)c(Cl)c3)cs2)o1" , please.
## Result 4.57

## Task How about "OCc1ccc(C=NNc2nc(-c3ccc(Cl)cc3)cs2)o1" ?
## Result 4.40

## Task How about "OCc1ccc(C=NNc2nc(-c3ccccc3)cs2)o1" ?
## Result 4.37

## Task How about "Cc1ccc(-c2csc(NN=Cc3ccc(CO)o3)n2)cc1" ?
## Result 4.44

## Task How about "OCc1ccc(C=NNc2nc(-c3ccc(Cl)cc3Cl)cs2)o1" ?
## Result 4.38

## Task How about "OCc1ccc(C=NNc2nc(-c3ccc(-c4ccccc4)cc3)cs2)o1" ?
## Result 4.47

## Task How about "COc1ccc(-c2csc(NN=Cc3ccc(CO)o3)n2)cc1" ?
## Result 4.84

## Task How about "O=[N+]([O-])c1cccc(-c2csc(NN=Cc3ccc(CO)o3)n2)c1" ?
## Result 4.23

## Task How about "OCc1ccc(C=NNc2nc(-c3ccc(Br)cc3)cs2)o1" ?
## Result 4.58

## Task How about "OCc1ccc(C=NNc2nc(-c3ccc(F)cc3F)cs2)o1" ?
## Result 4.36

## Task How about "N#Cc1ccc(-c2csc(NN=Cc3ccc(CO)o3)n2)cc1" ?
## Result 4.50

## Task How about "O=[N+]([O-])c1ccc(-c2csc(NN=Cc3ccc(CO)o3)n2)cc1" ?
## Result 4.83

## Task How about "OCc1ccc(C=NNc2nc(-c3ccc(F)cc3)cs2)o1" ?
## Result 4.44

====

target: BChE (Equus caballus); construct: BChE (from horse serum); assay: biochemical; settings: Lineweaver–Burk plots
pKi: −log10 of the molar value.
Hi, to clarify the labels: y covers pKi from 5 upward, n covers anything below 5.

## Task Quick check, pKi >= 5? OCc1ccc(C=NNc2nc(-c3ccc(-c4ccccc4)cc3)cs2)o1 [2e]
## Result y

## Task How about COc1ccc(-c2csc(NN=Cc3ccc(CO)o3)n2)cc1 [2b] ?
## Result n

## Task How about OCc1ccc(C=NNc2nc(-c3ccc(Br)cc3)cs2)o1 [2f] ?
## Result y

## Task How about O=[N+]([O-])c1cccc(-c2csc(NN=Cc3ccc(CO)o3)n2)c1 [2m] ?
## Result n

====

experiment: ABTS radical scavenging assay; details: 2 µg mL^−1
Lab note - cut at 10% for ABTS percent radical scavenging: true (1) if strictly below, false (0) if not.

## Task A record lists "OCc1ccc(C=NNc2nc(-c3ccc(Cl)c(Cl)c3)cs2)o1" . Is its ABTS percent radical scavenging below 10%?
## Result false (0)

## Task How about "O=[N+]([O-])c1cccc(-c2csc(NN=Cc3ccc(CO)o3)n2)c1" ?
## Result false (0)

## Task How about "OCc1ccc(C=NNc2nc(-c3ccc(Cl)cc3Cl)cs2)o1" ?
## Result false (0)

## Task How about Cc1c(C)c2c(c(C)c1O)CCC(C)(C(=O)O)O2 (stereo not drawn) [Trolox, reference compound] ?
## Result false (0)

## Task How about "OCc1ccc(C=NNc2nc(-c3ccc(-c4ccccc4)cc3)cs2)o1" ?
## Result false (0)

## Task How about "OCc1ccc(C=NNc2nc(-c3ccc(Br)cc3)cs2)o1" ?
## Result false (0)

## Task How about "OCc1ccc(C=NNc2nc(-c3ccc(F)cc3)cs2)o1" ?
## Result true (1)

## Task How about "OCc1ccc(C=NNc2nc(-c3ccc(Cl)cc3)cs2)o1" ?
## Result false (0)

## Task How about "OCc1ccc(C=NNc2nc(-c3ccccc3)cs2)o1" ?
## Result false (0)

## Task How about "COc1ccc(-c2csc(NN=Cc3ccc(CO)o3)n2)cc1" ?
## Result true (1)

## Task How about "Cc1ccc(-c2csc(NN=Cc3ccc(CO)o3)n2)cc1" ?
## Result false (0)

## Task How about "N#Cc1ccc(-c2csc(NN=Cc3ccc(CO)o3)n2)cc1" ?
## Result false (0)

All values here come from paper PMC12680558.
